These data points were gathered from the supplement of paper PMC10981050.

Please go through the items and note down their cell viability.
tested on: MARIMO; assay: cell viability relative to vehicle control; higher = less cytotoxic; details: 10 µM; SRSF2 genotype: SRSF2 P95H/wt;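 also: after 48 h exposure read by CellTiter-Glo luminescence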
Counter-ions that a name gives are not always drawn.
Give bare numbers, in %.

CNC(=O)c1cnn(-c2nc(N)c3ncn([C@@H]4O[C@H](CO)[C@@H](O)[C@H]4O)c3n2)c1; 102
COc1ccc(C(=O)C(=O)c2ccc(OC)cc2)cc1; 95.5
CCOCCn1c(N2CCCN(C)CC2)nc2ccccc21; 101

Parameters: items (list). Returns: cell viability for each item.
1. N#CCNC(=O)c1ccc(-c2ccnc(Nc3ccc(N4CCOCC4)cc3)n2)cc1
2. CCC[C@H](NC(=O)[C@@H]1[C@H]2CCC[C@H]2CN1C(=O)[C@@H](NC(=O)[C@@H](NC(=O)c1cnccn1)C1CCCCC1)C(C)(C)C)C(=O)C(=O)NC1CC1
3. O[C@@H](COc1cccc2ncccc12)CN1CCN([C@@H]2c3ccccc3[C@@H]3[C@H](c4ccccc42)C3(F)F)CC1
4. CN1[C@@H]2CC[C@H]1C[C@@H](OC(c1ccccc1)c1ccccc1)C2 [Benztropine mesylate]
5. O=c1ccoc2cc(O)ccc12 [7-Hydroxy-4-chromone]

Ans:
1: 26.7; 2: 68.6; 3: 56.6; 4: 81.9; 5: 99.1

Give cell viability for all compounds that follow.
1. c1ccc2[nH]c(-c3cscn3)nc2c1
2. N#CC[C@H](C1CCCC1)n1cc(-c2ncnc3[nH]ccc23)cn1 [S-Ruxolitinib]
3. CC(/C=C/C=C(\C)C(=O)O[C@@H]1O[C@H](CO[C@@H]2O[C@H](CO)[C@@H](O)[C@H](O)[C@H]2O)[C@@H](O)[C@H](O)[C@H]1O)=C\C=C\C=C(C)\C=C\C=C(/C)C(=O)O[C@@H]1O[C@H](CO[C@@H]2O[C@H](CO)[C@@H](O)[C@H](O)[C@H]2O)[C@@H](O)[C@H](O)[C@H]1O
4. COc1ccc(C2CNC(=O)C2)cc1OC1CCCC1 (stereo not drawn) [Rolipram]
5. C=C[C@@H]1C[C@]1(NC(=O)[C@@H]1C[C@@H](Oc2ncc(OC)c3ccc(Cl)cc23)CN1C(=O)[C@@H](NC(=O)OC(C)(C)C)C(C)(C)C)C(=O)NS(=O)(=O)C1CC1

Ans:
[98.8, 101, 95.6, 104, 103]

List the reported cell viability of each compound below.
1. O=C1CCc2ccccc2O1 [Dihydrocoumarin]
2. C=CC(=O)N1CCN(C(=O)CNc2cc(I)c(Cl)cc2O)CC1 [K-Ras(G12C) inhibitor 12]
3. CS(=O)(=O)c1ccc(-c2cnc(NCc3ccco3)n3cnnc23)cc1
4. CCCCc1oc2ccccc2c1C(=O)c1cc(I)c(OCCN(CC)CC)c(I)c1 [Amiodarone HCl]
5. C[C@@H]1O[C@@H](OC[C@H]2O[C@@H](Oc3cc(O)c4c(c3)O[C@H](c3ccc(O)c(O)c3)CC4=O)[C@H](O)[C@@H](O)[C@@H]2O)[C@H](O)[C@H](O)[C@H]1O

Ans:
1. 94.5
2. 79.8
3. 103
4. 52.3
5. 105

Dear reader, for each entry below, please note its cell viability.
1. CC/C(=C(\c1ccccc1)c1ccc(OCCN(C)C)cc1)c1ccccc1 [Tamoxifen Citrate (Nolvadex)]
2. COc1cc(C=O)cc(OC)c1O
3. CCOC(=O)c1cccc(N)c1 [Ethyl 3-Aminobenzoate methanesulfonate]
4. Cc1cc(N2CCCCC2)nc2ccccc12
5. CCC(=O)NS(=O)(=O)c1ccc(-c2c(-c3ccccc3)noc2C)cc1 [Parecoxib Sodium]
6. CN1CCN2c3ccccc3Cc3ccccc3C2C1 (stereo not drawn) [Mianserin HCl]
7. COc1cc(C(=O)NC2CCN(C)CC2)ccc1Nc1ncc2c(n1)N(C1CCCC1)CC(F)(F)C(=O)N2C

Ans:
1: 80; 2: 102; 3: 87.2; 4: 93.6; 5: 101; 6: 83.7; 7: 31.6

---

tested on: MOLM14; test: cell viability relative to vehicle control; higher = less cytotoxic; conditions: 10 µM; SRSF2 genotype: SRSF2 P95H/wt
property.label: cell viability

COC(=O)c1ccc(O)c(O)c1 [Methyl protocatechuate]; 101%
CC(=O)Nc1ccc(C(=O)Nc2ccccc2N)cc1; 31.6%
CC1(C)C=C(CN2C/C(=C\c3ccc(F)cc3)C(=O)/C(=C/c3ccc(F)cc3)C2)C(C)(C)N1O; 0.27%
Cc1ccc(NCCCc2ccccc2)c(N)c1; 69%

Now consider a different compound.
Q: What measured cell viability goes with CC(=O)Oc1ccccc1C(=O)O.CC(=O)Oc1ccccc1C(=O)O.NC(N)=O [Carbasalate Calcium] ?
Ans: 104%

---

system: MARIMO; assay: cell viability relative to vehicle control; higher = less cytotoxic; conditions: 10 µM; SRSF2 genotype: SRSF2 wt/wt
property.label: cell viability (%)
One number for each entry, in %.

O=C(O)CCCCC(CCSCc1ccccc1)SCc1ccccc1 (stereo not drawn); 111
CC(C)c1nc(N(C)S(C)(=O)=O)nc(-c2ccc(F)cc2)c1/C=C/[C@@H](O)C[C@@H](O)CC(=O)O; 96.5

Q: # query: cell viability of entry `O=C1O[C@H]2[C@@H]3OC(=O)c4cc(O)c(O)c(O)c4-c4c(cc(O)c(O)c4O)C(=O)OC[C@H]2O[C@@H](OC(=O)c2cc(O)c(O)c(O)c2)[C@@H]3OC(=O)c2cc(O)c(O)c3c2[C@@H]2C1=CC(=O)[C@](O)(O3)C2(O)O`
Ans: 86

---

Provide the reported cell viability of each item.
tested on: OCI-AML2; assay: cell viability relative to vehicle control; higher = less cytotoxic; conditions: 10 µM; SRSF2 genotype: P95H/wt
Structures can show the parent of a compound that is named as a salt.
One number for each entry, in %.

Here's what some known entries look like.
Cc1cc(N2CCCCC2)nc2ccccc12; 96.6
CC[C@H]1OC(=O)C[C@@H](O)[C@H](C)[C@@H](O[C@@H]2O[C@H](C)[C@@H](O)[C@H](N(C)C)[C@H]2O)[C@@H](CCN2C[C@H](C)C[C@H](C)C2)C[C@@H](C)C(=O)/C=C/C(C)=C/[C@@H]1CO[C@@H]1O[C@H](C)[C@@H](O)[C@@H](OC)[C@H]1OC; 93.3
C=C(C)C1CCC2(C)CCC(=O)C(C)=C2C1 (centres undefined); 102
CC(C)C(=O)Nc1ccc([N+](=O)[O-])c(C(F)(F)F)c1 [Flutamide (Eulexin)]; 90.5
Cc1cnc(C(=O)N[C@H]2CCCCC/C=C\[C@@H]3C[C@@]3(C(=O)NS(=O)(=O)C3CC3)NC(=O)[C@@H]3C[C@@H](Oc4nc5ccccc5c5ccccc45)CN3C2=O)cn1; 115

Please supply cell viability for each of the following items, keeping them in order.
1. C[C@]12C=CC(=O)C=C1CC[C@H]1[C@@H]3C[C@@H](O)[C@](O)(C(=O)CO)[C@@]3(C)C[C@H](O)[C@@]12F
2. Nc1ccc2ncnc(NCCc3ccc(Oc4ccccc4)cc3)c2c1
3. Fc1ccc([C@@H]2CCNC[C@H]2COc2ccc3c(c2)OCO3)cc1 [Paroxetine mesylate]
4. CC(C)NC[C@@H](C(=O)N1CCN(c2ncnc3c2[C@H](C)C[C@H]3O)CC1)c1ccc(Cl)cc1
5. Cc1[nH]c2ccccc2c1C1=C(NCCc2ccc(F)cc2)C(=O)N(C)C1=O
6. COc1cc2c(cc1OC)-c1cc3ccc4c(c3c[n+]1CC2)OCO4 [Epiberberine]

Ans:
1: 110; 2: 52.3; 3: 28.7; 4: 72.1; 5: 100; 6: 86.4

---

system: OCI-AML2; assay: cell viability relative to vehicle control; higher = less cytotoxic; settings: 10 µM; SRSF2 genotype: wt/wt
Counter-ions that a name gives are not always drawn.
// assign Criterion met if cell viability falls strictly below 40%, else Criterion not met (ties count as Criterion not met)

C/C(=N\NC(=O)c1cccc(S(=O)(=O)N2CCOCC2)c1)c1cc(Cl)ccc1O; Criterion met
C[C@@H](O)[C@H]1C(=O)N2C(C(=O)O)=C(S[C@@H]3CN[C@H](CNS(N)(=O)=O)C3)[C@H](C)[C@H]12 [Doripenem]; Criterion not met
CCOc1ccccc1OCCN[C@H](C)Cc1ccc(OC)c(S(N)(=O)=O)c1 [Tamsulosin hydrochloride]; Criterion not met
COc1ccc(C2CNC(=O)C2)cc1OC1CCCC1 (stereo not drawn) [Rolipram]; Criterion not met
CN1CCN(c2ccc3nc(-c4c(N)c5c(F)cccc5[nH]c4=O)[nH]c3c2)CC1 [Dovitinib Dilactic acid (TKI258 Dilactic aci]; Criterion met
CCN(CC)CC#CCOC(=O)C(O)(c1ccccc1)C1CCCCC1 (stereo not drawn) [Oxybutynin chloride]; Criterion not met

Q: Determine if CC/C(=C(\c1ccc(O)cc1)c1ccc(OCCNC)cc1)c1ccccc1 [Endoxifen HCl] shows cell viability strictly lower than 40%.
Ans: Criterion met

Q: Confirm or reject: cell viability of Cc1cccc(Nc2ccncc2S(=O)(=O)NC(=O)NC(C)C)c1 [Torsemide (Demadex)] lies strictly below 40%
Ans: Criterion not met
